Tested on: CYP2A6 over CYP3A4
test_name: Selectivity for CYP2A6 over CYP3A4
condition_notes: human
measure: selectivity ratio

      chemical_structure        study_system  experimental_result
0  CSCc1ccc(-c2cccnc2)o1  CYP2A6 over CYP3A4                  9.2
1         CNCC#Cc1cccnc1  CYP2A6 over CYP3A4                 92.8
2     c1ccc(-c2ccsc2)cc1  CYP2A6 over CYP3A4               > 32.3
3  CNCc1ccc(-c2cccnc2)o1  CYP2A6 over CYP3A4                > 250

* * *

test_name: Stability in mouse liver microsome
condition_notes: microsomes
measure: half-life (min)

      chemical_structure  experimental_result
0   NCc1ccc(-c2ccccc2)o1                   22
1  CSCc1ccc(-c2cccnc2)o1                   38
2      Cc1cscc1-c1ccccc1                   37
3   NCc1ccc(-c2ccccc2)s1                   41
4   SCc1ccc(-c2cccnc2)o1                  105
5   NCc1ccc(-c2cccnc2)s1                   60
6    Cc1csc(-c2cccnc2)n1                   49
